Just for reference, the NTF2 design screens of Basanta et al. (2020) is where these values come from.

Would you kindly list protease stability score for each of these sequences?
assay: protease stability score; higher = more stable; yeast display proteolysis, trypsin and chymotrypsin;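 also: log10 excess protease needed over predicted unfolded state with 0 meaning unfolded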
Numbers only.

Here are 3 sequences together with their reported answers.
primarysequence=DEKNLNQLKDLIKTNDEERIHELMDPNVRLVIGDQEVQGRENVFKVLKRWRERADHVRYNDLKLHDGRAFADVEINVNGENIRVHYVYVAHNGRIKEIKVTATDEDEQRKVEDNYK valueobserved=1.37
primarysequence=DSRSNAQRVLDAINQLVHGNPQEFNKNADPNVRATYGDKEVHGREEVKKHVDSLMKKVDHVQVKNYQITGDKARVQVVLDINGRTRHVQINAHAKNGRIKHVEIQQQ valueobserved=0.895
primarysequence=DEDSQTKLAELFITALEEGDPELANKNVDENARADVGDKTLHGREDVSRMVHDLRRRADHIQVETLEVRNGRVDAIIVIDVNGKKVRFRMEIEIHNGRIKHLRMKSE valueobserved=0.653

Hi there! I need protease stability score for each item below, if you can.
1. DQDEIRQNARDLATGDPDRAREQADKHVRVEIGEKTLHGREKLEEWMKHIHERIDHNRVHDIQIDNGRVEASVNVDINGKKVVFTIVAEFDNGKIQRVQVDVRDHEVQKVMEEIDS
2. DNTIKRKFHDLIRAWQTNDENRYMQLFDPNVKIRVGNQQFHGREDWSKWFREQMTHLRNDFTVKSLEVDGDKVVADIVAVLSINGRPNKMRVDYRMTVHNGKIKSAEMRFSHEIETKIEQ
3. DNRLQRWADRWLEVVETGNPEEIRKLVDKDVDVEIGDQQYKGQDHLSKQWKDFHKHAKLEIKDYKIDVEGDRLVINVDAVYNVNGQPRRNRYNLEFKLHNGKVRSVHFRIDPDEQRKMDS
4. DEDEARKVMKKWQEVVQKGDPDDVRKLYKPNVKWEAADTRRQGVDVVVEQMKKVQDKGVEFQVRKAKVEGDRFQVVYDVKLGNDTATFTVQVEARGGQIDEVRAKVDEKAYKVMKKG
5. DDEDQRDQVRRLSKQMQTGDPNKVRQLLDPNAEVHIGDTTVHGREEVMRSQDKLRKRIDHFEMQDMKVDGESVVAHAVFRVDGKDITLEVRARYTNGRVKKMSFNPEAITRIRS

Response:
[0.821, 1.46, 1.44, 0.123, 0.127]

Prompt: If you can, please state the reported protease stability score value of DDTVQRMVDKFLENLKTGNEEDISKMADPNVSLNYGDKRIHGREQLMQWVERQEKEMRVEFQIRHVDVHGNKAHVTADMRIHNNGDPDNARVQFVVNAQGDKVKTITFHKTR .
Response: -0.14

* * *

experiment: protease stability score; higher = more stable; yeast display proteolysis, trypsin and chymotrypsin;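 also: log10 excess protease needed over predicted unfolded state with 0 meaning unfolded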
measurementName: protease stability score
One number for each entry.

Here are 5 sequences together with their reported answers.
primarysequence=DEKKERQRAKELVKAMQHGDESKLKELLDENARLNVGDHKFHGMEEAHKTMRELWTRVDHLTVKSVDVTNGKIDIVVVFRHNGKNDRQVLEADVHNGRVRQQQIKSE measurementname="protease stability score" valueobserved=-0.14
primarysequence=DHENKKRVEEFLKALERNDPERLNHLMDPNVNIIVGDQRFHGREDAARNMAHEQKEQRFEVEDYRISVHGDDVRVEMIVQAEINGRPFRFTLIVYARIHDGRIQTIEFRIDEDEKRRMDQ measurementname="protease stability score" valueobserved=0.895
primarysequence=DDQVAKMVRKLLRLEESGNEEELRKLADEEAEFVVGDKRYRGMTEYVQSVYHKKKEIRFKIITYSAEDDGDKIVVIIKMTNNHNGQPDTFRVKVVFVANNGNLKHANFRKRK measurementname="protease stability score" valueobserved=0.39
primarysequence=EEHDERTMHRLVETNDWETISRNADKDVKFQVGNKSYHGKEEFTEVLRKITKRADHIEYRSFNSHNGRIDVDYVFVVNGKEVKVFVQIQVHNGRIKHMRMRATNPDQQQELVDQLS measurementname="protease stability score" valueobserved=1.44
primarysequence=DEDRVRRHLEKAFKVIQNGNEEEAKKIGAPDVEYHYADKELEGEEAVIVAVRIVKKIGAEVKTQEEEVKGNEMRATFQYKKGDTTVQTKATVVYEGDKLKKARVELSDEVKKIIHQG measurementname="protease stability score" valueobserved=-0.111

Hi there! I need protease stability score for each item below, if you can.
1. DEEDADRILKLLKKNNFEELARNADPNVHVRIGDTRIHGREEVTSHMKRLTDRIDHVDWRSMSVTGDRVVVRAVYTVNGDRIDFEIEIQFHNGRVVSVRFQARDEDDKHKYRKAEK
2. DEKELKKVLKTVVEYLKNGKAERVVKHLHDDVQVIYDDEEVHGADKFKEMVEKFQKLGYKVEYKEVHVEGDTATVKVQVDAGGETAEFHVTYQATGQKVDRMEVKYDERAQKVIKHG

Response:
[0.428, 1.14]

* * *

Would you kindly list protease stability score for each of these sequences?
assay: protease stability score; higher = more stable; yeast display proteolysis, trypsin and chymotrypsin;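 also: log10 excess protease needed over predicted unfolded state with 0 meaning unfolded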

Here are 5 sequences together with their reported answers.
primarysequence=EENNLELAHRVMENIQTNNPDEVVKQLDPNARIQVGDKVYHGREQARKMVEDLIDRLRVQIDSVDLEVQGDKAQLEFTQIEEHNGRPNSAKFIVDVTVHNGRVQNMEFREHK valueobserved=0.891
primarysequence=DDQLFRVLQELWKALQEGDHKHAIDQAPEDARFHVGEKNYHGMEDAAKHLAEFYKQIRVRIEIKRYEINGDSLNVHVVVQMNNNGKPERRRNVILAKLHNGRMLEMQVHDRE valueobserved=0.064
primarysequence=DEDDLRRIIKEFQKALKTGDTDEIRRQIDPNAHARYGDKEVHGREQLLSRLDELMNNVDHMQIDDLTFRGDKATVDFVMNHNGHERRHILHMVVHNGTIKSAHLDDS valueobserved=1.01
primarysequence=DEEFRHKVAKALQSNNEHQLHELMDKDAKMTIGDKTVHGREEIHRVLRRLREQADHWHVSRFKIHNGKIVADVQVHINGQTYHMTITAFARGDRIERLEYTVRDEDLLRKIQRWLG valueobserved=1.97
primarysequence=DEKKIYDLLKKMVEAYVSGNAEEVRKLLKDDGTLDVGDQQYHGVEQVTKAAEEFQKYGVELHLTDYRFDGDRVDVKAVAHLGGNTWEFTVTVQADGGKVDRLVFHVSEEAVKYIQKG valueobserved=1.28

Prompt: If you can, please state the reported protease stability score value of DTDDNRKAAENILTAIQSNDPDERQKNADENVKVNVGDNRISGRENMHEFMKRVWEDVDKITIRSYTFKGDKMTADIHLNFNGQTAKLNVDVNIHNGKAQEVSMDPKADRVVRT .
Response: 0.47

* * *

experiment: protease stability score; higher = more stable; yeast display proteolysis, trypsin and chymotrypsin;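 also: log10 excess protease needed over predicted unfolded state with 0 meaning unfolded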
measurementName: protease stability score

Here are 2 sequences together with their reported answers.
primarysequence=DEEVRKAYHDAMKAEEKGDEDRIRELFDPNARVQVGDKTYQGREDISHNLAREQKHARYHIKHVDLQVHNGRLTVKQTYDFQHNGQPNSDRDKATIEADGENIKDVEVKQNP valueobserved=-0.27
primarysequence=DDKDIQEIAHEINHAWEEGDSKRFADLLSENARVDVGDKDYEGREFNKKWMKDIRDRVDHLEIDHVSAKGNTVEVTMVMNINGRNATVVVEYTFHNGQVRHAQLKFTSEEDKRKFHG valueobserved=0.453

// next item, protease stability score requested
Prompt: If you can, please state the reported protease stability score value of DEDHVQDKAEDLARAIQRGDEDRMNELFDENVKVQVGDKTIHGRENVVDHMREQNEQADRIEIKSITATGDKIRIEMVVVHNGQNTHVVFEVKWENGKIKHMTQKTE .
Response: 1.94

* * *

Would you kindly list protease stability score for each of these sequences?
test: protease stability score; higher = more stable; yeast display proteolysis, trypsin and chymotrypsin;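 also: log10 excess protease needed over predicted unfolded state with 0 meaning unfolded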

Here are 3 sequences together with their reported answers.
primarysequence=DEEFLKRLVKILRTGDPDKLVNNFDKNARLEYGDKTVEGKNRIKKFMKDLHDRVDHFDIESVTLEPNHLDFTMKAQINGRDVKVRVRVEVHNGKIKHATYKYTNEDQERNMKHVKS valueobserved=0.561
primarysequence=DERAAQTAVDLMKTNNERDRVKMADENVRYNVGDKTVHGREEWKKFAEQQRTSIDHMKIDDVKHHNGRIQVDMVVVVNGKKFRFVLQATVHNGKFKYFQRKVRDDEIRKILRRINK valueobserved=0.235
primarysequence=DHKELKKYLEQVEKNDFDKLKKNVDEDARVNYGNKTWHGREQVQKYWDDLKKRIDHFDVTHMTVKGDKLHYIVRMNVNGQNFEHKVVIEIQNGKIKQVDARYRDEKQKEKLEKVAD valueobserved=0.868

// next item, protease stability score requested
Prompt: If you can, please state the reported protease stability score value of EDEVRQRAEEFLKAWERGDPETLMRMADPNARFKIGDKEVHGREDYHREHKRQRDQMRYRLHSYEVSASGDKVHVDVSYNMNNNGQPNNSRQTFSARVDNGKIKELNVQSTG .
Response: -0.061
